CONDITION_CONTEXT: in acetone, 310.65 K
ENDPOINT: solubility (mole fraction)
Please give only the number in your answer, with no unit.

Problem: Name the reported solubility (mole fraction) value associated with the compound Cc1cccc(C(=O)O)c1[N+](=O)[O-]
Result: 0.0414

----------
CONDITION_CONTEXT: in acetone, 285.65 K
ENDPOINT: solubility (mole fraction)
Keep the answer to the number alone.

Problem: Which solubility (mole fraction) value is on record for Cc1cccc(C(=O)O)c1[N+](=O)[O-] ?
Result: 0.0265

----------
CONDITION_CONTEXT: in methanol, 285.65 K
ENDPOINT: solubility (mole fraction)
Lab note: record just the number, no unit beside it.

Problem: Entry under review: Cc1cccc(C(=O)O)c1[N+](=O)[O-] . Reported solubility (mole fraction)?
Result: 0.0104

----------
CONDITION_CONTEXT: in 1,4-dioxane, 290.65 K
ENDPOINT: solubility (mole fraction)
Lab note: jot down the number only; don't add units.

Problem: I would be grateful if you could share the reported solubility (mole fraction) for Cc1cccc(C(=O)O)c1[N+](=O)[O-] .
Result: 0.0324

----------
CONDITION_CONTEXT: in n-propanol, 283.15 K
ENDPOINT: solubility (mole fraction)

Problem: Fill blank: measured solubility (mole fraction) of the compound Cc1cccc(C(=O)O)c1[N+](=O)[O-] is ____.
Result: 0.00792

----------
CONDITION_CONTEXT: in acetonitrile, 295.65 K
ENDPOINT: solubility (mole fraction)

Problem: What measured solubility (mole fraction) goes with Cc1cccc(C(=O)O)c1[N+](=O)[O-] ?
Result: 0.00684

----------
CONDITION_CONTEXT: in n-propanol, 313.15 K
ENDPOINT: solubility (mole fraction)
Output: the number by itself.

Problem: # query: solubility (mole fraction) of entry Cc1cccc(C(=O)O)c1[N+](=O)[O-]
Result: 0.0169

----------
CONDITION_CONTEXT: in isopropanol, 318.15 K
ENDPOINT: solubility (mole fraction)

Problem: What value of solubility (mole fraction) has been reported for the following molecule? Cc1cccc(C(=O)O)c1[N+](=O)[O-]
Result: 0.0224

----------
CONDITION_CONTEXT: in NMP, 315.65 K
ENDPOINT: solubility (mole fraction)
The answer should be a number; do not append a unit.

Problem: What does the data say about its solubility (mole fraction)? Entry: Cc1cccc(C(=O)O)c1[N+](=O)[O-]
Result: 0.0372

----------
CONDITION_CONTEXT: in 1,4-dioxane, 295.65 K
ENDPOINT: solubility (mole fraction)

Problem: Can you look up the measured solubility (mole fraction) of Cc1cccc(C(=O)O)c1[N+](=O)[O-] for me?
Result: 0.0371

----------
CONDITION_CONTEXT: in ethanol, 315.65 K
ENDPOINT: solubility (mole fraction)
// keep it numeric: no unit symbol after the value

Problem: Which solubility (mole fraction) is listed for Cc1cccc(C(=O)O)c1[N+](=O)[O-] ?
Result: 0.0276

----------
CONDITION_CONTEXT: in acetone, 308.15 K
ENDPOINT: solubility (mole fraction)
Could you keep your reply to the number by itself?

Problem: Fill in: solubility (mole fraction) of Cc1cccc(C(=O)O)c1[N+](=O)[O-] is ___
Result: 0.0396

----------
CONDITION_CONTEXT: in ethanol, 283.15 K
ENDPOINT: solubility (mole fraction)

Problem: Record request: solubility (mole fraction) value, item Cc1cccc(C(=O)O)c1[N+](=O)[O-]
Result: 0.0103

----------
CONDITION_CONTEXT: in ethyl acetate, 288.15 K
ENDPOINT: solubility (mole fraction)
API doc: respond with a numeric literal and nothing else, no unit.

Problem: solubility (mole fraction) for Cc1cccc(C(=O)O)c1[N+](=O)[O-] ?
Result: 0.0102

----------
CONDITION_CONTEXT: in isopropanol, 315.65 K
ENDPOINT: solubility (mole fraction)
Number only, please.

Problem: For the compound shown here, Cc1cccc(C(=O)O)c1[N+](=O)[O-] , give the reported solubility (mole fraction).
Result: 0.021

----------
CONDITION_CONTEXT: in ethyl acetate, 298.15 K
ENDPOINT: solubility (mole fraction)
I'd appreciate a reply containing only the number, no unit.

Problem: Return reported solubility (mole fraction); argument: Cc1cccc(C(=O)O)c1[N+](=O)[O-]
Result: 0.0128

----------
CONDITION_CONTEXT: in ethyl acetate, 303.15 K
ENDPOINT: solubility (mole fraction)
The answer should be a number; do not append a unit.

Problem: Tell me the measured solubility (mole fraction) of Cc1cccc(C(=O)O)c1[N+](=O)[O-] , please.
Result: 0.0144

----------
CONDITION_CONTEXT: in ethyl acetate, 310.65 K
ENDPOINT: solubility (mole fraction)
Could you keep your reply to the number by itself?

Problem: For the compound shown here, Cc1cccc(C(=O)O)c1[N+](=O)[O-] , give the reported solubility (mole fraction).
Result: 0.017

----------
CONDITION_CONTEXT: in ethyl acetate, 315.65 K
ENDPOINT: solubility (mole fraction)
Quick one: just the number, no unit, thanks!

Problem: Quick check: solubility (mole fraction) of Cc1cccc(C(=O)O)c1[N+](=O)[O-] ?
Result: 0.019

----------
CONDITION_CONTEXT: in methanol, 298.15 K
ENDPOINT: solubility (mole fraction)
# print the numeric value only

Problem: Requested field: solubility (mole fraction). Item: Cc1cccc(C(=O)O)c1[N+](=O)[O-]
Result: 0.0149

----------
CONDITION_CONTEXT: in isopropanol, 293.15 K
ENDPOINT: solubility (mole fraction)
# output: bare number, no unit

Problem: Field request: solubility (mole fraction) | item: Cc1cccc(C(=O)O)c1[N+](=O)[O-]
Result: 0.0118

----------
CONDITION_CONTEXT: in isopropanol, 298.15 K
ENDPOINT: solubility (mole fraction)
Please reply with the value in numeric form only.

Problem: Which solubility (mole fraction) value is on record for Cc1cccc(C(=O)O)c1[N+](=O)[O-] ?
Result: 0.0136

----------
CONDITION_CONTEXT: in isopropanol, 288.15 K
ENDPOINT: solubility (mole fraction)
Output: the number by itself.

Problem: Return reported solubility (mole fraction); argument: Cc1cccc(C(=O)O)c1[N+](=O)[O-]
Result: 0.0102

----------
CONDITION_CONTEXT: in isopropanol, 295.65 K
ENDPOINT: solubility (mole fraction)
// return just the number, without any unit appended

Problem: Quick one: solubility (mole fraction) of Cc1cccc(C(=O)O)c1[N+](=O)[O-] ?
Result: 0.0126

----------
CONDITION_CONTEXT: in NMP, 293.15 K
ENDPOINT: solubility (mole fraction)
Answer as a number with no unit attached.

Problem: Find the recorded solubility (mole fraction) belonging to Cc1cccc(C(=O)O)c1[N+](=O)[O-] and report it.
Result: 0.0184

----------
CONDITION_CONTEXT: in acetone, 300.65 K
ENDPOINT: solubility (mole fraction)
Write no unit; give the number alone.

Problem: Bench note: what solubility (mole fraction) did Cc1cccc(C(=O)O)c1[N+](=O)[O-] show?
Result: 0.0347

----------
CONDITION_CONTEXT: in n-propanol, 310.65 K
ENDPOINT: solubility (mole fraction)
Simply state the number, no unit and no words.

Problem: Return reported solubility (mole fraction); argument: Cc1cccc(C(=O)O)c1[N+](=O)[O-]
Result: 0.016
